The entries below come with measured log10 CC50 at 5 days values attached.
Assay: MT4 cytotoxicity analysis (CellTiter-Glo)
Type: cell-based
Settings: human, MT4 CC50 (nM)
Quantity: log10 CC50 at 5 days (log10 of the value in nM)

[[record]]
smiles_str = "CCCCCCCCCCCCCCCCCCOC[C@H](COP(=O)(O)OC[C@H]1O[C@@](C#N)(c2ccc3c(N)ncnn23)[C@H](O)[C@@H]1O)OCc1cc(F)c(Cl)c(C#N)c1"
quantity = "log10 CC50 at 5 days"
observed_result = 2.81

[[record]]
smiles_str = "CCCCCCCCCCCCCCCCCCOC[C@H](COP(=O)(O)OC[C@H]1O[C@@](C#N)(c2ccc3c(N)ncnn23)[C@H](O)[C@@H]1O)OCc1cc(F)c(C)c(C#N)c1"
quantity = "log10 CC50 at 5 days"
observed_result = 2.63

[[record]]
smiles_str = "CCCCCCCCCCCCCCCCCCOC[C@H](COP(=O)(O)OC[C@H]1O[C@@](C#N)(c2ccc3c(N)ncnn23)[C@H](O)[C@@H]1O)OCc1cc(C#N)c(Cl)c(OC)c1"
quantity = "log10 CC50 at 5 days"
observed_result = 3.11

[[record]]
smiles_str = "CCCCCCCCCCCCCCCCCCOC[C@H](COc1ccc(C#N)nn1)OP(=O)(O)OC[C@H]1O[C@@](C#N)(c2ccc3c(N)ncnn23)[C@H](O)[C@@H]1O"
quantity = "log10 CC50 at 5 days"
observed_result = 2.62

[[record]]
smiles_str = "CCCCCCCCCCCCCCCCCCOC[C@H](COP(=O)(O)OC[C@H]1O[C@@](C#N)(c2ccc3c(N)ncnn23)[C@H](O)[C@@H]1O)Nc1ccc(C#N)cn1"
quantity = "log10 CC50 at 5 days"
observed_result = 2.74

[[record]]
smiles_str = "CCCCCCCCCCCCCCCCCCOC[C@H](COP(=O)(O)OC[C@H]1O[C@@](C#N)(c2ccc3c(N)ncnn23)[C@H](O)[C@@H]1O)SCc1ccccc1"
quantity = "log10 CC50 at 5 days"
observed_result = 4.59

[[record]]
smiles_str = "CCCCCCCCCCCCCCCCCCO[C@H](C)[C@H](COP(=O)(O)OC[C@H]1O[C@@](C#N)(c2ccc3c(N)ncnn23)[C@H](O)[C@@H]1O)OCc1ccccc1"
quantity = "log10 CC50 at 5 days"
observed_result = 3.26

[[record]]
smiles_str = "CCCCCCCCCCCCCCCCCCNC(=O)[C@H](COP(=O)(O)OC[C@H]1O[C@@](C#N)(c2ccc3c(N)ncnn23)[C@H](O)[C@@H]1O)OCc1cc(F)cc(C#N)c1"
quantity = "log10 CC50 at 5 days"
observed_result = 2.62

[[record]]
smiles_str = "CCCCCCCCCCCCCCCCCOCCOP(=O)(O)OC[C@H]1O[C@@](C#N)(c2ccc3c(N)ncnn23)[C@H](O)[C@@H]1O"
quantity = "log10 CC50 at 5 days"
observed_result = 3.68

[[record]]
smiles_str = "CCCCCCCCCCCCCCCCCCOC[C@H](COP(=O)(O)OC[C@H]1O[C@@](C#N)(c2ccc3c(N)ncnn23)[C@H](O)[C@@H]1O)Nc1ccccc1C(=O)O"
quantity = "log10 CC50 at 5 days"
observed_result = 4.58

[[record]]
smiles_str = "CCCCCCCCCCCCCCCCCCOC[C@H](COP(=O)(O)OC[C@H]1O[C@@](C#N)(c2ccc3c(N)ncnn23)[C@H](O)[C@@H]1O)OCc1cncc(S(C)(=O)=O)c1"
quantity = "log10 CC50 at 5 days"
observed_result = 2.45

